Reported IC50 by item:
Tested on: HepG2
Experiment: Antioxidant activity in human HepG2 cells assessed as inhibition of ABAP-induced peroxyl radical generation incubated for 60 mins measured for 60 mins by DCFH-DA probe based fluorescence assay
Format: functional, cell-based
Conditions: HepG2, 1 h
Kindly answer with a numeric value in µM, unit omitted.

INSERT INTO results (compound, unit, experimental_result) VALUES
  ('Cc1ccc([C@]2(C)CC[C@@H](C(C)(C)O)O2)cc1O', 'µM', 18);

Then this compound:
Which measured IC50 belongs to O=c1c(O)c(-c2ccc(O)c(O)c2)oc2cc(O)cc(O)c12 [QUERCETIN] , tested on HepG2?
65
